Reported responders at 10 mg/kg by item:
Test system: Male mice of the Swiss Webster Strain
PROCEDURE DETAILS: Calcium chloride-induced arrhythmia in anesthetized mice (survival)
Format: in vivo
MEASUREMENT CONDITIONS: Mus musculus, iv, Dose = 10 mg/kg i.v.; calcium chloride 200 mg/kg i.v. bolus 5, 15 or 30 minutes after drug; observed 15 minutes; read-out: CaCl2 #Mice Surviving #Mice Tested (converted)
Where a name gives a salt, the structure may show the parent alone.
Please give a number only; it is taken to be in %.

Guide cases for responders at 10 mg/kg, answers given:
{"columns": ["MOLECULE", "ASSAY SYSTEM", "responders at 10 mg/kg / %"],
 "data": [
  ["Cc1nc(NCCCn2ccnc2)ccc1C#N [Example 30]", "Male mice of the Swiss Webster Strain", 16.7],
  ["Cc1cc(NCCCc2cccnc2)nc2ccccc12.Cl.Cl [Example 98, dihydrochloride]", "Male mice of the Swiss Webster Strain", 83.3]
]}

Return responders at 10 mg/kg (reported value) for this molecule: O=[N+]([O-])c1ccc(NCCCn2ccnc2)nc1 [Example 11]
0

Identify measured responders at 10 mg/kg associated with Cc1ccc(C#N)c(NCCC(C)n2ccnc2)n1 (stereo not drawn) [Example 85, dihydrochloride]
33.3

Name the recorded responders at 10 mg/kg of the molecule listed here: Cc1ccc(C#N)c(NCC(C)Cn2ccnc2)n1 (stereo not drawn) [Example 84, dihydrochloride]
50

Specify measured responders at 10 mg/kg for c1cncc(CCCCNc2nccc3ccccc23)c1 [Example 105, dihydrochloride] .
50

Please supply the value of reported responders at 10 mg/kg for the item CC(=O)c1cc(C#N)c(NCCCn2ccnc2)nc1C [Example 12]
16.7

* * *

ASSAY SYSTEM: thromboxane synthetase enzyme (Rattus norvegicus, UniProt P49430)
Construct: from tissue; host or cells: washed blood platelets from Okamoto-Aoki spontaneously hypertensive rats (SHR)
Sequence (P49430 whole entry): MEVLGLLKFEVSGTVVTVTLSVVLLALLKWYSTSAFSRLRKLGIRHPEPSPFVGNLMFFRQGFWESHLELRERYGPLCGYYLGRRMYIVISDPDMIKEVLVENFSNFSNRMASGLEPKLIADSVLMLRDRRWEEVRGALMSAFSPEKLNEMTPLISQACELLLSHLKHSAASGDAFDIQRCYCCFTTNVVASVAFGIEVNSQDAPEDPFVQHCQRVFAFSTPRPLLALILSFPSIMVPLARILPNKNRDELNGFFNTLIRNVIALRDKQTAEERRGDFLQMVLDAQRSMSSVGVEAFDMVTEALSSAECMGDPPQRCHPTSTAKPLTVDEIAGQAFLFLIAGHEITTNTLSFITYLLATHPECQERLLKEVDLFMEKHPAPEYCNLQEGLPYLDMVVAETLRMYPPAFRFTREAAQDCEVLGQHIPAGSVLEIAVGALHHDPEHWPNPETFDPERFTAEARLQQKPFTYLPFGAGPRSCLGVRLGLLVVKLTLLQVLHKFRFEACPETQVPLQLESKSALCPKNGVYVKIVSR
PROCEDURE DETAILS: Inhibition of thromboxane (TXB2) formation in washed rat platelets, TXB2 radioimmunoassay
Type: biochemical, Okamoto-Aoki spontaneously hypertensive rats (SHR)
MEASUREMENT CONDITIONS: Concentration 1x10^-4M, platelet suspension incubated 10 minutes at 37 °C
MEASUREMENT KIND: inhibition at 100 µM (%)
Numeric only. Scale: %

Example molecules with recorded inhibition at 100 µM:
{"columns": ["MOLECULE", "REPORTED RESULT"],
 "data": [
  ["Cc1cc(NCCCn2ccnc2)nc2c(C)cccc12", 98],
  ["c1ccc(-c2cc(NCCCn3ccnc3)nc3ccccc23)cc1", 100],
  ["N#Cc1ccc(NCCCn2ccnc2)nc1", 92],
  ["Cc1ccc(C#N)c(NCc2cccnc2)n1", 81],
  ["Cc1cc(NCC(C)Cn2ccnc2)nc2ccccc12 (centres unmarked)", 98]
]}

Quote thromboxane synthetase enzyme (Rattus norvegicus, UniProt P49430) inhibition at 100 µM for entry Cc1ccc2ccc(NCCCn3ccnc3)nc2n1 .
98

Find inhibition at 100 µM for COc1ccc2nc(NCCCn3ccnc3)cc(C)c2c1 on thromboxane synthetase enzyme (Rattus norvegicus, UniProt P49430) and write it down.
97

Check thromboxane synthetase enzyme (Rattus norvegicus, UniProt P49430) data and give inhibition at 100 µM for CC(CNc1nc2ccccc2c2ccccc12)Cn1ccnc1 (centres unmarked) .
100

State recorded inhibition at 100 µM with thromboxane synthetase enzyme (Rattus norvegicus, UniProt P49430), entry N#Cc1ccc(-c2ccncc2)nc1NCCCn1ccnc1 , no comment.
85

Enter recorded inhibition at 100 µM with thromboxane synthetase enzyme (Rattus norvegicus, UniProt P49430) for Cc1ccc(C#N)c(NCCCn2ccnc2)n1 here.
79

Recall the reported inhibition at 100 µM of Cc1cc(C)c2ccc(NCCCn3ccnc3)nc2n1 when tested on thromboxane synthetase enzyme (Rattus norvegicus, UniProt P49430).
93
